Reference source: paper PMC6566077

# Test system: M. tuberculosis H37Rv
# Type: cell-based, Mycobacterium tuberculosis H37Rv
# condition-set: M. tuberculosis H37Rv, checkerboard

- molecule: "O=C(NCCCOCCOCCOCCCNC(=O)c1cccc(B(O)O)c1)c1cccc(B(O)O)c1"
  ΣFIC, interaction profile with Meropenem: 0.625
- molecule: "O=C(NCCOCCOCCNC(=O)c1cccc(B(O)O)c1)c1cccc(B(O)O)c1"
  ΣFIC, interaction profile with Meropenem: 0.625
- molecule: "CC1(C)[C@H](C(=O)O)N2C(=O)C[C@H]2S1(=O)=O [Sulbactam, reference compound]"
  ΣFIC, interaction profile with Meropenem: 0.313
- molecule: "O=C(NCCNC(=O)c1cccc(B(O)O)c1)c1cccc(B(O)O)c1"
  ΣFIC, interaction profile with Meropenem: 1

---

# Test system: Mycobacterium bovis BCG
# test: microbe, parasite or virus in culture
# Type: cell-based
# condition-set: Mycobacterium tuberculosis variant bovis BCG, BCG, read-out: MIC Mycobacteria, Mycobacterium bovis BCG
outcome-measure: MIC (mM)

- compound: "O=C(NCCOCCOCCOCCOCCOCCOCCOCCOCCOCCOCCOCCOCCOCCOCCOCCOCCOCCOCCOCCOCCOCCOCCOCCNC(=O)c1cccc(B(O)O)c1)c1cccc(B(O)O)c1 [Compound 7]"
  modifier: ">"
  endpoint-value: 25
- compound: "O=C(O)c1ccc(B(O)O)cc1 [Compound 3, reference compound]"
  modifier: "="
  endpoint-value: 6.25
- compound: "OB(O)c1ccccc1 [Compound 1, reference compound]"
  modifier: "="
  endpoint-value: 3.13
- compound: "O=C(NCCNC(=O)c1cccc(B(O)O)c1)c1cccc(B(O)O)c1 [Compound 4]"
  modifier: "="
  endpoint-value: 0.78
- compound: "O=C(O)c1cccc(B(O)O)c1 [Compound 2, reference compound]"
  modifier: "="
  endpoint-value: 12.5

---

# Tested on: Mycobacterium tuberculosis
# test: microbe, parasite or virus in culture
# Format: cell-based, Mycobacterium tuberculosis H37Rv
# condition-set: Mycobacterium tuberculosis; read-out: MIC Mycobacteria, Mycobacterium tuberculosis
outcome-measure: MIC

- molecule: "O=C(NCCCOCCOCCOCCCNC(=O)c1cccc(B(O)O)c1)c1cccc(B(O)O)c1"
  target-entity: "Mycobacterium tuberculosis"
  outcome-measure: "MIC"
  endpoint-value: "1.56 to 3.13 mM"
- molecule: "O=C(NCCOCCOCCNC(=O)c1cccc(B(O)O)c1)c1cccc(B(O)O)c1"
  target-entity: "Mycobacterium tuberculosis"
  outcome-measure: "MIC"
  endpoint-value: "1.56 to 3.13 mM"
- molecule: "OB(O)c1ccccc1 [Compound 1, reference compound]"
  target-entity: "Mycobacterium tuberculosis"
  outcome-measure: "MIC"
  endpoint-value: "6.25 to 12.5 mM"
- molecule: "O=C(O)c1cccc(B(O)O)c1 [Compound 2, reference compound]"
  target-entity: "Mycobacterium tuberculosis"
  outcome-measure: "MIC"
  endpoint-value: "6.25 to 12.5 mM"
- molecule: "O=C(NCCNC(=O)c1cccc(B(O)O)c1)c1cccc(B(O)O)c1"
  target-entity: "Mycobacterium tuberculosis"
  outcome-measure: "MIC"
  endpoint-value: "1.56 to 3.13 mM"

---

# test: Haemolysis assay
# Format: cell-based
# condition-set: sheep, ovine red blood cells, versus 100% lysis with lysis buffer
# Procedure: Following incubation for 24 hours at at 570 nm (BioTek Synergy HT microplate reader). All assays were undertaken with 3 independent experimental Two-fold serial dilutions were then carried out diluting 100 μL of ovine blood was HT Microplate Reader). […] All assays were undertaken with 3 independent experimental repeats. DMSO compounds for compounds 3, 6 and 8. Following addition of the red colouring across whole well = agglutination). All assays were undertaken with three independent experimental

- molecule: "O=C(NCCOCCOCCNC(=O)c1cccc(B(O)O)c1)c1cccc(B(O)O)c1"
  hemolysis at 1 h (%): 0
- molecule: "O=C(O)c1cccc(B(O)O)c1 [Compound 2, reference compound]"
  hemolysis at 1 h (%): 4.5
- molecule: "OB(O)c1ccccc1 [Compound 1, reference compound]"
  hemolysis at 1 h (%): 0
- molecule: "O=C(NCCCOCCOCCOCCCNC(=O)c1cccc(B(O)O)c1)c1cccc(B(O)O)c1"
  hemolysis at 1 h (%): 0
- molecule: "O=C(NCCNC(=O)c1cccc(B(O)O)c1)c1cccc(B(O)O)c1"
  hemolysis at 1 h (%): 0
- molecule: "O=C(O)c1ccc(B(O)O)cc1 [Compound 3, reference compound]"
  hemolysis at 1 h (%): 0.9

---

# Test system: Mycobacterium tuberculosis
# test: microbe, parasite or virus in culture
# Format: cell-based, Mycobacterium tuberculosis H37Rv
# condition-set: Mycobacterium tuberculosis; M. tuberculosis H37Rv, compound alone, REMA checkerboard (Table S3); read-out: MIC
outcome-measure: MIC (µM)

- compound: "O=C(NCCOCCOCCNC(=O)c1cccc(B(O)O)c1)c1cccc(B(O)O)c1"
  unit-symbol: "µM"
  endpoint-value: 3130
- compound: "CC1(C)[C@H](C(=O)O)N2C(=O)C[C@H]2S1(=O)=O [Sulbactam, reference compound]"
  unit-symbol: "µM"
  endpoint-value: 134
- compound: "O=C(NCCNC(=O)c1cccc(B(O)O)c1)c1cccc(B(O)O)c1"
  unit-symbol: "µM"
  endpoint-value: 3130
- compound: "O=C(NCCCOCCOCCOCCCNC(=O)c1cccc(B(O)O)c1)c1cccc(B(O)O)c1"
  unit-symbol: "µM"
  endpoint-value: 1560
